Taken from the supplement of paper PMC9170038.

# Test system: MS2 coat protein
# Procedure summary: apparent KD of MS2 coat protein; designed switch direction (-1 OFF switch, 1 ON switch): -1; higher = weaker reporter binding
# Test conditions: input ligand: FMN 200 uM
# label = YES if apparent KD of MS2 coat protein >= 30 nM else NO

[
  {
    "Biopolymer sequence": "AAGGAUAGAGGAUAUACAUAGAUACAGAUUCAUGUAGUCCUACAUGAGGAUCACCCAUGUAGAAGGCUAUCCUA [Fiskers Ex 2 - 12] (Eterna round: R96, puzzle: Exclusion 2)",
    "Classification": "YES"
  },
  {
    "Biopolymer sequence": "UUUAAUGGAAUUAAGAUCACAUGAGGAUCACCCAUGUAUAUAUAGGAUAUCAGCUCGAUUAGAGCUGAGAAGGAUAUAUACAUA [ExNG3/6-B1] (Eterna round: R96, puzzle: Exclusion NG 3)",
    "Classification": "YES"
  },
  {
    "Biopolymer sequence": "CUUGUGUGAGGAUAUGAAUUGCCUGGACAUACAGGCUCCUGUCAGAAGGCACAUGAGGAUCACCCAUGUGGGCA [Andiriso] (Eterna round: R97, puzzle: Exclusion 4)",
    "Classification": "YES"
  },
  {
    "Biopolymer sequence": "GCGUACAGCCUAAGCAGUGACAUGAGGAUCACCCAUGUACGAACGUUUACCAAGCUUGUCUUAAUACCAUUAUAAAU [Eternabot (L1) Solution 20] (Eterna round: R97, puzzle: Sensor, turn-off variant 1)",
    "Classification": "NO"
  },
  {
    "Biopolymer sequence": "ACAUGAGGAUCACCCAUGUGAAAACAAUGGCUGACUUAGAGAUAGGAUAUAUGUGCAUAUCAAACAUAGAAGGGUCAUUACUGG [Deportation 89 - Jieux - Exclusion NG 3] (Eterna round: R96, puzzle: Exclusion NG 3)",
    "Classification": "YES"
  }
]

Prompt line: Test whether the sequence CUCCAGCAAGGAUAUACGUGUCUAAGAAGAGGUCUUAUGCUACAUGAGGAUCACCCAUGUAGAAGGUGCGGACA [EX2 C.2] (Eterna round: R97, puzzle: Exclusion 2) records apparent KD of MS2 coat protein of 30 nM or higher.
Response line: NO

Prompt line: Please check the record GCUGGAAAAGGAUAUACAUAACGUGCGUCGGCACGAGAUCUACAUGAGGAUCACCCAUGUAGAAGGUUUCCAGC [EX2 #73] (Eterna round: R97, puzzle: Exclusion 2) and state if its apparent KD of MS2 coat protein is at or above 30 nM.
Response line: YES

Prompt line: Form field: apparent KD of MS2 coat protein at least 30 nM? Entry: GCGGGAAAAGGAUAUGAGAGGUAAUACAUGAGGAUCACCCAUGUGAUAGACUCUGUGCUUUUAGAAGGUUUAUGUC [Eternabot (L1) Solution 19] (Eterna round: R97, puzzle: Exclusion 5)
Response line: NO

Prompt line: Given the entry ACAAGCUUUUAGAUUUUCAACAUGAGGAUCACCCAUGUUCGUCUUAUGCUCGGGCUUGGGCGGUGUCCGGGUUUGGG [JL TOV1 3.78 sellena mod] (Eterna round: R97, puzzle: Sensor, turn-off variant 1) , answer whether its apparent KD of MS2 coat protein meets or surpasses 30 nM.
Response line: YES
